system: COLO 205 colon; experiment: NCI tumour cell line growth inhibition, 48 h
Assign TGI to each entry below.

Query: Given Cc1cc(S(N)(=O)=O)c(SCc2nc(N)nc(N(C)C)n2)cc1Cl , state its recorded TGI.
Result: > 10 µM

Query: How about this compound: O=[N+]([O-])c1ccc(-c2ccc(/C=N/n3c(-c4ccc(Cl)cc4)n[nH]c3=S)o2)cc1
Result: > 75.5 µM

Query: Would you kindly repeat that for O/N=C1\CCc2cc(-c3nc(C4CCNCC4)[nH]c3-c3ccncc3)ccc21 ?
Result: > 25 µM

###

system: SF-268 CNS; experiment: NCI tumour cell line growth inhibition, 48 h; in the data active = GI50 below about 0.43 µM; inactive = the rest
Result category, one only: active, inactive

Query: Outcome? O=C1c2cc3c(cc2-c2c1c1cc(Cl)c(Cl)cc1c(=O)n2CCCn1ccnc1)OCO3
Result: active

Query: Likewise for O=[N+]([O-])c1ccc(Sc2ncccn2)c([N+](=O)[O-])c1 ?
Result: inactive

Query: Same question for O=C1C=C[C@]2(C[C@@H](c3cccc(C(F)(F)F)c3)O[C@@H](c3cccc(C(F)(F)F)c3)O2)O1 please.
Result: inactive

Query: # repeat for O=[N+]([O-])c1ccc(N/N=C\c2cc(Cl)ccc2O)nc1
Result: inactive

Query: What about this compound? CC12OC(C(=O)C13CC3)C1C(=O)c3ccccc3C(=O)C12 (configuration not stated)
Result: inactive

Query: Next record, please: O=C(Nc1n[nH]c2nc(-c3ccco3)c(Br)cc12)C1CC1
Result: inactive

Query: What do you have for CC1(C)N=C(N)N=C(N)N1c1cccc(/C=C/C=C/c2cccc([N+](=O)[O-])c2)c1 ?
Result: inactive
